Entry source: the supplement of paper PMC3334620

# target_entity: Hmlalpha2 (UniProt P0CY09)
# Sequence: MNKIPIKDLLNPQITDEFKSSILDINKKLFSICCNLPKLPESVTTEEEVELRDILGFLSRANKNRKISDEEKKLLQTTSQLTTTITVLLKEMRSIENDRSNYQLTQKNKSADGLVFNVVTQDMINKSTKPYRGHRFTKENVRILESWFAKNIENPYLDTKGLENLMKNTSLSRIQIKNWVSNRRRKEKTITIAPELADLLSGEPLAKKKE
# assay_info: PBM E-score (8-mer binding enrichment) (E-score (-0.5 to 0.5)); higher = stronger / more preferred TF binding
# test_conditions: protein concentration: 200 nM; construct: GST-full length
Whole data set: some 33,000 sequences, median “E-score (-0.5 to 0.5)” near -0.04, cut for the highest 2% near 0.36. The full list was thinned out, with the highest values kept by preference.
# maps each entry to its PBM E-score

# monomer_sequence, PBM E-score
rows = [
    ("ACGTAACC", 0.22),
    ("ACTCGACA", 0.203),
    ("AATGTATA", 0.315),
    ("ATCTCACC", -0.126),
    ("TAACACAA", 0.43),
    ("CTTGTATC", 0.264),
    ("ACACAACT", 0.317),
    ("GCCACGAC", -0.0179),
    ("GTAATAAA", 0.35),
    ("TATACATA", 0.445),
    ("GTATATAA", 0.29),
    ("CAGTAAAA", 0.134),
    ("GATACATA", 0.32),
    ("ATGTAACA", 0.454),
    ("GACTACTC", -0.0288),
    ("ACACAGCA", 0.358),
    ("AAAGCGAG", 0.107),
    ("TAAACTTA", 0.228),
    ("CTGTATAA", 0.209),
    ("ACACCTAG", -0.163),
    ("CCACTAGC", -0.111),
    ("GAACACAA", 0.319),
    ("GATGTATA", 0.237),
    ("GCCTAGAA", -0.187),
    ("CATAATAA", 0.281),
    ("GTGGGCGA", -0.04),
    ("AATACATC", 0.368),
    ("GGGCACTA", -0.105),
    ("CAAACCCG", -0.0693),
    ("ACGTAAAG", 0.372),
    ("AAGGAGCT", -0.163),
    ("CCATGAGG", -0.313),
    ("AGCATTGC", 0.0222),
    ("TTCTGAAA", 0.0341),
    ("CTCCTATC", -0.139),
    ("ATGTATCC", 0.294),
    ("AATGTATC", 0.284),
    ("GCGTATAC", 0.371),
    ("GTGTAACA", 0.411),
    ("GTGTATAA", 0.391),
    ("AGGTATTC", 0.139),
    ("CTTGAGGA", -0.227),
    ("ACACAGCG", 0.424),
    ("AATACAGG", 0.2),
    ("CTGTATAC", 0.247),
    ("CTAAAAAC", 0.0815),
    ("AGTGGATG", -0.0671),
    ("AAGTTTCC", 0.0351),
    ("GCCGAGCC", -0.127),
    ("ACACAACC", 0.305),
    ("GGATCCTA", -0.154),
    ("ATAATAAC", 0.187),
    ("GACCTTGC", -0.356),
    ("GACATGAC", 0.29),
    ("GAACAAGA", 0.139),
    ("GCGTATAA", 0.337),
    ("AATACAAT", 0.249),
    ("ACGTAAGT", 0.216),
    ("AGACTGGA", -0.0528),
    ("GATACATC", 0.169),
    ("TAACGGCA", -0.0141),
    ("CTGTATTC", 0.255),
    ("CCGTATAC", 0.0388),
    ("AACATGAC", 0.425),
    ("AGCATGAT", 0.0873),
    ("CACATGAC", 0.267),
    ("ATAATACC", 0.0152),
    ("AATACAAC", 0.315),
    ("AAACACAA", 0.322),
    ("ACGTAAAA", 0.388),
    ("ACACAACG", 0.377),
    ("AGTAATAC", 0.211),
    ("ATGTATAG", 0.362),
    ("AACATGAT", 0.439),
    ("AGGAAAGC", -0.203),
    ("CTGTAACA", 0.223),
    ("TGTAATAA", 0.45),
    ("ATAATACA", 0.38),
    ("GGTCGACC", -0.0813),
    ("ACGAGGAA", 0.0596),
    ("ATAGAACA", 0.164),
    ("CATGTATC", 0.405),
    ("GTAATAAC", 0.392),
    ("GTAATAGA", 0.257),
]

###

# target_entity: Hmlalpha2 (UniProt P0CY09)
# Sequence: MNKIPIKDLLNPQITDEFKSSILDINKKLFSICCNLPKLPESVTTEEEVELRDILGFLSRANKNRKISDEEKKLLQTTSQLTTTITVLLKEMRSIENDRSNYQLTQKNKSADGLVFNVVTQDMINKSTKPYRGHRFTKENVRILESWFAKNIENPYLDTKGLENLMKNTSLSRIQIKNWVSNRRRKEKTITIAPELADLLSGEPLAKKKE
# assay_info: PBM E-score (8-mer binding enrichment) (E-score (-0.5 to 0.5)); higher = stronger / more preferred TF binding
# test_conditions: protein concentration: 200 nM; construct: GST-full length
In all, about 33,000 sequences were measured (“E-score (-0.5 to 0.5)”: median about -0.04, highest 2% from about 0.36 on). The sample holds the highest values, similar sequences and a random draw of the others, so the mix is not that of the screen.

# monomer_sequence, PBM E-score
measured = [
    ("AGACATAA", 0.143),
    ("GGCGCGTA", 0.255),
    ("ACCTCTTC", -0.0525),
    ("AAATTTAT", 0.201),
    ("AATTTTAC", 0.347),
    ("CGGTGTTA", 0.253),
    ("ATGTGTCA", 0.261),
    ("AACATGGG", 0.415),
    ("TGAAAGAA", 0.129),
    ("AATAACCT", 0.104),
    ("CTCTGCCC", -0.109),
    ("AGCAAACG", -0.0759),
    ("AGACATAT", 0.0652),
    ("ACTAACAC", 0.293),
    ("CGAATCGC", -0.169),
    ("ATGTGTTA", 0.429),
    ("CCGCATAC", 0.0261),
    ("AAATTTAC", 0.375),
    ("AATTACAC", 0.467),
    ("AAGAAGAT", -0.0289),
    ("CATAACAA", 0.323),
    ("AACGAAGT", 0.0804),
    ("GATGTCGA", 0.126),
    ("ACCCGACC", -0.145),
    ("GACATGAA", 0.204),
    ("GACATGGC", 0.224),
    ("AGAAGGAA", -0.351),
    ("ATCGCGTA", 0.368),
    ("GATAACGC", 0.199),
    ("GTACATAC", 0.362),
    ("ATATCGGA", -0.0245),
    ("TATTACAA", 0.416),
    ("GCAAAACC", -0.272),
    ("ACTGTCGC", -0.165),
    ("CATTACAG", 0.326),
    ("CACATGGG", -0.0456),
    ("AGATAGAA", -0.166),
    ("CCTCTCCG", -0.305),
    ("AGGTAAGC", -0.198),
    ("CTATTGCA", 0.117),
    ("GCTAACAA", 0.164),
    ("CTACATAC", 0.327),
    ("ATTGCGTA", 0.296),
    ("ATAGCGAC", 0.106),
    ("ACGGGGGG", -0.22),
    ("AACAGGTT", 0.11),
    ("CTATTCCC", -0.203),
    ("CCCCGTCC", -0.382),
    ("CGACATAG", 0.139),
    ("ACCTGAGG", -0.266),
    ("GGGGCCTA", -0.31),
    ("GATAACAC", 0.39),
    ("ATACATAC", 0.386),
    ("CGTGTCAG", 0.273),
    ("AGCGCGTA", 0.388),
    ("GGTGAGTA", 0.135),
    ("ATGTGTGA", 0.202),
    ("CGTAGCAG", -0.129),
    ("ATGAAGAC", 0.028),
    ("ATCTGCCA", -0.149),
    ("AACCCTGG", -0.204),
    ("AACATGGA", 0.346),
    ("CTTGCGTA", 0.286),
    ("AACATGGC", 0.406),
    ("GAATACCC", -0.19),
    ("CTCGCGTA", 0.22),
    ("CATGTCAG", 0.314),
    ("CACATGGC", 0.0319),
    ("AGCATGAA", 0.0173),
    ("AACATGGT", 0.384),
    ("CATGTCAC", 0.245),
    ("ACAGATGC", -0.0548),
    ("CAGGGCCG", -0.121),
]
